- System: Plasmodium berghei
- test description: Screen against P. berghei liver stage (PbLuc), transformed with Luciferase, at 10uM
- Type: functional, HepG2
- setup conditions: tested at 10 uM
Out of some 69,000 compounds screened, about 8,600 (12%) showed an effect of 50% or more. This excerpt belongs to a sample that is enriched for strong results.
Parameter INHIBITION: see the listing below.
measured attribute: INHIBITION (%)

compound=CCn1cc(CN2CCN(Cc3cccc(OC)c3)C(=O)C2)cc1C#N unit_name=% reported=56.3
compound=COc1cccc(N2CCN(Cc3ncc[nH]3)CC2=O)c1 unit_name=% reported=-26.5
compound=COc1cccc(N2CCN(Cc3nccc(OC)c3OC)CC2=O)c1 unit_name=% reported=11.2
compound=O=C(c1ccccc1)N1CCC[C@]2(C[C@@H](OCc3ccccn3)CO2)C1 unit_name=% reported=49.7
compound=COc1cccc(N2CCN(Cc3cc(C)cc(F)c3)CC2=O)c1 unit_name=% reported=11.3
compound=CC(C)c1nc(CN2CCC(CO)CC2)cs1 unit_name=% reported=23.4
compound=COc1cccc(N2CCN(Cc3nccn3C(C)C)CC2=O)c1 unit_name=% reported=59.5
compound="Cc1cnccc1CN1Cc2ccccc2OC2(CCC(CO)CC2)C1 (centres undefined)" unit_name=% reported=41.2
compound="Cc1nc(C)c(C(=O)N2Cc3ccccc3OCC2Cn2ccnc2)s1 (centres undefined)" unit_name=% reported=51.7
compound=CC(C)c1nc(CN(C)C(=O)CNC(N)=O)cs1 unit_name=% reported=41.5
compound=CC(C)c1nc(CN(C)C(=O)c2cn3ccsc3n2)cs1 unit_name=% reported=50.5
compound=CCN(CC)CCNc1c(-c2ccccc2)c(=O)c1=O unit_name=% reported=4.07
compound="O=C(c1cccnc1)N1Cc2ccccc2OCC1Cn1ccnc1 (centres undefined)" unit_name=% reported=24.8
compound=CC(C)c1nc(CC(=O)Nc2nc(CN3CCCCCC3)cs2)cs1 unit_name=% reported=59.7
compound=Cc1ccc2cc(C(=O)N3CCN(S(C)(=O)=O)CC3)[nH]c2c1 unit_name=% reported=-11.4
compound=CCn1cc(CN2CCN(Cc3cc(C)cc(C)c3)C(=O)C2)cc1C#N unit_name=% reported=-17.8
compound=COc1cccc(N2CCN(Cc3ccc(NC(C)=O)cc3)CC2=O)c1 unit_name=% reported=38.5
compound="OCC1CCC2(CC1)CN(Cc1ccccc1F)Cc1ccccc1O2 (centres undefined)" unit_name=% reported=53.5
compound=COc1cc(CN2CCN(c3cccc(OC)c3)C(=O)C2)cc(OC)c1 unit_name=% reported=58.5
compound=CC(C)c1nc(CN2CCCCC2)cs1 unit_name=% reported=47.9
compound="OCC1CCC2(CC1)CN(Cc1ccccn1)Cc1ccccc1O2 (centres undefined)" unit_name=% reported=21
compound="Cc1ccc(CN2Cc3ccccc3OC3(CCC(CO)CC3)C2)s1 (centres undefined)" unit_name=% reported=67.9
compound="Cc1ccc(CN2CC(C(=O)Nc3ccccc3)C3(CCOCC3)C2)s1 (centres undefined)" unit_name=% reported=45.8
compound=COc1cccc(CN2CCN(Cc3ccc4nonc4c3)CC2=O)c1 unit_name=% reported=24.9

* * *

- Tested on: Plasmodium berghei
- test description: Screen against P. berghei liver stage (PbLuc), transformed with Luciferase, at 10uM
- Assay type: functional, HepG2
- setup conditions: tested at 10 uM
Out of some 69,000 compounds screened, about 8,600 (12%) showed an effect of 50% or more. What follows is part of a selection rich in strong results, with near analogues and random picks from the rest.
Exam item: assign 1 to entries whose INHIBITION is below 50% and -1 to entries at or above 50%. Note that a value of exactly 50% receives -1.

compound=CS(=O)(=O)c1ccc(C(=O)NCc2nc3cc(F)ccc3[nH]2)cc1 label_value=-1
compound="O=C(Nc1cccc(F)c1)C1CCCN1c1nccs1 (stereo unspecified)" label_value=1
compound="CN(C(=O)Cn1nc(-c2ccccc2Cl)ccc1=O)C1CCS(=O)(=O)C1 (stereo unspecified)" label_value=1
compound="CS(=O)(=O)c1cccc(C(=O)NCC2Cc3ccccc3O2)c1 (stereo unspecified)" label_value=1
compound=CC1CCN(C(=O)[C@H]2C[C@@H]3CCN(CC4CCOCC4)C[C@H]3O2)CC1 label_value=1
